# System Tested: serotonin transporter (SERT) (Homo sapiens)
# Sequence (P31645 whole entry, species assumed): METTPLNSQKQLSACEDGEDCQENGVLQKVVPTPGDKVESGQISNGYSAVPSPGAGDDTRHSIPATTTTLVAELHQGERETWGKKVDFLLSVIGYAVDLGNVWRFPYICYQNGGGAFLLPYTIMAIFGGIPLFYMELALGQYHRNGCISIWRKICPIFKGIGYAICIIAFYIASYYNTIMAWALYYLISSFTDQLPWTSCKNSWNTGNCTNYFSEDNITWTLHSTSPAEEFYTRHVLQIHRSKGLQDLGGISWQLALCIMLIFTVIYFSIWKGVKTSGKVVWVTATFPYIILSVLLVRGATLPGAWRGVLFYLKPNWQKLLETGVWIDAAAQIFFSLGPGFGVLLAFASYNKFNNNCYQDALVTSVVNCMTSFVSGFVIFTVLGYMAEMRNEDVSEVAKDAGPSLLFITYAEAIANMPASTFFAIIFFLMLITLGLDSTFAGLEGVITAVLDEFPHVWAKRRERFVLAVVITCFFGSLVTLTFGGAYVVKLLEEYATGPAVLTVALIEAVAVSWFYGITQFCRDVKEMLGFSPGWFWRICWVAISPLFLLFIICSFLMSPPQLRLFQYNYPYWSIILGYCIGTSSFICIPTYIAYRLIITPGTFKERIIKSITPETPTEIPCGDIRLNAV
# Test Details: Serotonin reuptake inhibition, [3H]-5-HT, cells transfected with 5-HT transporter cDNA
pIC50: −log10 of the molar value.

| Mol Smiles | pIC50 |
| --- | --- |
| COc1cc2cc(-c3nnc(CN4CCC(Cc5ccc(Cl)c(Cl)c5)CC4)[nH]3)[nH]c2cc1OC | 6.56 |
| COC(=O)c1ccc(-c2nnc(CN3CCC(Cc4ccccc4)CC3)[nH]2)cc1N | 5.74 |
| COC(=O)c1cccc2c(-c3nnc(CN4CCC(Cc5ccc(Cl)c(Cl)c5)CC4)[nH]3)c[nH]c12 | 5.73 |
| COc1ccc2[nH]c(-c3nnc(CN4CCC(Cc5ccccc5)CC4)[nH]3)cc2c1 | 5.92 |
| Fc1ccc2[nH]c(-c3nnc(CN4CCC(Cc5ccccc5)CC4)[nH]3)cc2c1 | 5.28 |
| c1ccc(CC2CCN(Cc3nnc(-c4cc5ccccc5[nH]4)[nH]3)CC2)cc1 | 5.43 |
| NC(=O)c1ccc2[nH]c(-c3nnc(CN4CCC(Cc5ccccc5)CC4)[nH]3)cc2c1 | 6.24 |
| Fc1ccc(-c2nnc(CN3CCC(Cc4ccccc4)CC3)[nH]2)cc1 | 4.97 |
| COC(=O)c1ccc2[nH]c(-c3nnc(CN4CCC(Cc5ccccc5)CC4)[nH]3)cc2c1 | 6.19 |
| FC(F)(F)Oc1ccc(-c2nnc(CN3CCC(Cc4ccccc4)CC3)[nH]2)cc1 | 5.75 |
| COc1ccc2c(-c3nnc(CN4CCC(Cc5ccccc5)CC4)[nH]3)c[nH]c2c1 | 6.52 |
| Cc1ccc2[nH]c(-c3nnc(CN4CCC(Cc5ccccc5)CC4)[nH]3)cc2c1 | 4.60 |
| COc1ccc2c(-c3nnc(CN4CCC(Cc5ccc(Cl)c(Cl)c5)CC4)[nH]3)c[nH]c2c1 | 6.65 |
| COc1ccc2cc(-c3nnc(CN4CCC(Cc5ccccc5)CC4)[nH]3)[nH]c2c1 | 5.80 |
| Cc1ccc2c(-c3nnc(CN4CCC(Cc5ccccc5)CC4)[nH]3)c[nH]c2c1 | 6.29 |
| c1ccc(CC2CCN(Cc3nnc(-c4ccc5c(c4)OCO5)[nH]3)CC2)cc1 | 6.01 |
| N#Cc1ccc2[nH]c(-c3nnc(CN4CCC(Cc5ccccc5)CC4)[nH]3)cc2c1 | 6.02 |
| COc1cccc2c(-c3nnc(CN4CCC(Cc5ccccc5)CC4)[nH]3)c[nH]c12 | 6.49 |
| c1ccc(CC2CCN(Cc3nnc(-c4c[nH]c5ccccc45)[nH]3)CC2)cc1 | 6.02 |
| c1ccc(CC2CCN(Cc3nnc(-c4ccc5ccccc5c4)[nH]3)CC2)cc1 | 5.68 |
| Oc1cc2cc(-c3nnc(CN4CCC(Cc5ccccc5)CC4)[nH]3)[nH]c2cc1O | 6.52 |
| COc1cccc2cc(-c3nnc(CN4CCC(Cc5ccccc5)CC4)[nH]3)[nH]c12 | 5.93 |
| COc1cc2cc(-c3nnc(CN4CCC(Cc5ccccc5)CC4)[nH]3)[nH]c2cc1OC | 5.94 |
| COC(=O)c1cccc2c(-c3nnc(CN4CCC(Cc5ccccc5)CC4)[nH]3)c[nH]c12 | 6.38 |
| Nc1ccc2[nH]cc(-c3nnc(CN4CCC(Cc5ccccc5)CC4)[nH]3)c2c1 | 6.30 |
| COc1ccc(-c2nnc(CN3CCC(Cc4ccccc4)CC3)[nH]2)cc1OC | 5.59 |
| Clc1cccc2c(-c3nnc(CN4CCC(Cc5ccccc5)CC4)[nH]3)c[nH]c12 | 6.19 |
| FC(F)(F)c1ccc(-c2nnc(CN3CCC(Cc4ccccc4)CC3)[nH]2)cc1 | 5.24 |
| Clc1ccc2[nH]c(-c3nnc(CN4CCC(Cc5ccccc5)CC4)[nH]3)cc2c1 | 5.78 |
| Fc1ccc2cc(-c3nnc(CN4CCC(Cc5ccccc5)CC4)[nH]3)[nH]c2c1 | 5.44 |
| N#Cc1ccc(-c2nnc(CN3CCC(Cc4ccccc4)CC3)[nH]2)cc1 | 5.53 |

* * *

# System Tested: dopamine transporter (DAT) (Homo sapiens, UniProt Q01959)
# Sequence (Q01959 whole entry, species assumed): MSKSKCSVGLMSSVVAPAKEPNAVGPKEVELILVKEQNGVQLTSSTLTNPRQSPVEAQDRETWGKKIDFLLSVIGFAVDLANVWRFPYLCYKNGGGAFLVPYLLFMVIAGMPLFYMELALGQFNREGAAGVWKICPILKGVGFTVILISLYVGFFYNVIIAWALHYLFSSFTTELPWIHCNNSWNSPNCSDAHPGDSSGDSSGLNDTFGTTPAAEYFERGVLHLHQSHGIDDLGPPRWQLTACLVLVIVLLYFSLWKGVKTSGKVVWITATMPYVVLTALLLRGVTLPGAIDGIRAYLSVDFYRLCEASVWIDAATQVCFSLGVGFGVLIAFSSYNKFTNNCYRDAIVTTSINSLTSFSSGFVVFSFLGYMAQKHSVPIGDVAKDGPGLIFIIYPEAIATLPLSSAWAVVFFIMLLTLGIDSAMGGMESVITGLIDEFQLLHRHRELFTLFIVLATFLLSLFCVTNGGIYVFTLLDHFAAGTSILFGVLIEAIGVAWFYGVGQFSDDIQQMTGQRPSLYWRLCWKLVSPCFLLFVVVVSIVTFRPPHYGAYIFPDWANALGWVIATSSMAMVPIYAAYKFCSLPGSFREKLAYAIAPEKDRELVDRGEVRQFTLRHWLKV
# Test Details: Dopamine reuptake inhibition, [3H]-DA, HEK-293 cells transfected with dopamine transporter cDNA
# Condition Description: compound 1 μM; relative to control without compound (100%); lower value = stronger inhibition

| Molecule | System Tested | Output Unit | Triple reuptake inhibition (Ratio %) DAT |
| --- | --- | --- | --- |
| c1ccc(CC2CCN(Cc3nnc(-c4cc5ccccc5o4)[nH]3)CC2)cc1 [Example 25] | dopamine transporter (DAT) (Homo sapiens, UniProt Q01959) | % | 26.92 |
| c1ccc(C2CCN(Cc3nnc(-c4cc5ccccc5[nH]4)[nH]3)CC2)cc1 [Example 3] | dopamine transporter (DAT) (Homo sapiens, UniProt Q01959) | % | 81.14 |
| FC(F)(F)c1ccc2[nH]c(-c3nnc(CN4CCC(Cc5ccccc5)CC4)[nH]3)cc2c1 [Example 23] | dopamine transporter (DAT) (Homo sapiens, UniProt Q01959) | % | 46.60 |
| COc1ccc2cc(-c3nnc(CN4CCC(Cc5ccccc5)CC4)[nH]3)[nH]c2c1 [Example 18] | dopamine transporter (DAT) (Homo sapiens, UniProt Q01959) | % | 37.07 |
| Cc1ccc2[nH]cc(-c3nnc(CN4CCC(Cc5ccccc5)CC4)[nH]3)c2c1 [Example 39] | dopamine transporter (DAT) (Homo sapiens, UniProt Q01959) | % | 79.20 |
| Fc1ccc2[nH]c(-c3nnc(CN4CCC(c5c[nH]c6ccccc56)CC4)[nH]3)cc2c1 [Example 32] | dopamine transporter (DAT) (Homo sapiens, UniProt Q01959) | % | 44.81 |
| Fc1ccc2cc(-c3nnc(CN4CCC(Cc5ccccc5)CC4)[nH]3)[nH]c2c1 [Example 16] | dopamine transporter (DAT) (Homo sapiens, UniProt Q01959) | % | 12.06 |
| FC(F)(F)Oc1cccc(-c2nnc(CN3CCC(Cc4ccccc4)CC3)[nH]2)c1 [Example 54] | dopamine transporter (DAT) (Homo sapiens, UniProt Q01959) | % | 38.97 |

* * *

# System Tested: dopamine transporter (DAT) (Homo sapiens)
# Test Details: Dopamine reuptake inhibition, [3H]-DA, HEK-293 cells transfected with dopamine transporter cDNA
# Condition Description: compound 1 μM; relative to control without compound (100%); lower value = stronger inhibition
Triple reuptake inhibition (Ratio %) DAT reference
Recorded Metric: Triple reuptake inhibition (Ratio %) DAT

| Compound | System Tested | Recorded Metric | Measurement |
| --- | --- | --- | --- |
| c1ccc(CC2CCN(Cc3nnc(-c4ccc5c(c4)OCO5)[nH]3)CC2)cc1 [Example 27] | dopamine transporter (DAT) (Homo sapiens) | Triple reuptake inhibition (Ratio %) DAT | 9.71 |
| COc1ccc2[nH]c(-c3nnc(CN4CCC(Cc5ccccc5)CC4)[nH]3)cc2c1 [Example 13] | dopamine transporter (DAT) (Homo sapiens) | Triple reuptake inhibition (Ratio %) DAT | 10.00 |
| c1ccc(CC2CCN(Cc3nnc(-c4ccccc4)[nH]3)CC2)cc1 [Example 9] | dopamine transporter (DAT) (Homo sapiens) | Triple reuptake inhibition (Ratio %) DAT | 32.29 |
| FC(F)(F)c1ccc(-c2nnc(CN3CCC(Cc4ccccc4)CC3)[nH]2)cc1 [Example 50] | dopamine transporter (DAT) (Homo sapiens) | Triple reuptake inhibition (Ratio %) DAT | 20.84 |
| COC(=O)c1cccc2c(-c3nnc(CN4CCC(Cc5ccc(Cl)c(Cl)c5)CC4)[nH]3)c[nH]c12 [Example 60] | dopamine transporter (DAT) (Homo sapiens) | Triple reuptake inhibition (Ratio %) DAT | 94.44 |
| c1ccc(CC2CCN(Cc3nnc(-c4ccc5ccccc5c4)[nH]3)CC2)cc1 [Example 21] | dopamine transporter (DAT) (Homo sapiens) | Triple reuptake inhibition (Ratio %) DAT | 20.41 |
| N#Cc1ccc(-c2nnc(CN3CCC(Cc4ccccc4)CC3)[nH]2)cc1 [Example 46] | dopamine transporter (DAT) (Homo sapiens) | Triple reuptake inhibition (Ratio %) DAT | 13.85 |
| Clc1ccc(CC2CCN(Cc3nnc(-c4cc5ccccc5[nH]4)[nH]3)CC2)cc1 [Example 7] | dopamine transporter (DAT) (Homo sapiens) | Triple reuptake inhibition (Ratio %) DAT | 73.88 |
| COc1cccc2c(-c3nnc(CN4CCC(Cc5ccc(Cl)c(Cl)c5)CC4)[nH]3)c[nH]c12 [Example 45] | dopamine transporter (DAT) (Homo sapiens) | Triple reuptake inhibition (Ratio %) DAT | 72.49 |
| CN(C)CCNC(=O)c1ccc(-c2nnc(CN3CCC(Cc4ccccc4)CC3)[nH]2)cc1 [Example 58] | dopamine transporter (DAT) (Homo sapiens) | Triple reuptake inhibition (Ratio %) DAT | 77.67 |
| Clc1cccc(CC2CCN(Cc3nnc(-c4cc5ccccc5[nH]4)[nH]3)CC2)c1 [Example 8] | dopamine transporter (DAT) (Homo sapiens) | Triple reuptake inhibition (Ratio %) DAT | 32.29 |
| COc1cccc2c(-c3nnc(CN4CCC(Cc5ccccc5)CC4)[nH]3)c[nH]c12 [Example 37] | dopamine transporter (DAT) (Homo sapiens) | Triple reuptake inhibition (Ratio %) DAT | 40.29 |
| Clc1ccc(CC2CCN(Cc3nnc(-c4cc5ccccc5[nH]4)[nH]3)CC2)cc1Cl [Example 5] | dopamine transporter (DAT) (Homo sapiens) | Triple reuptake inhibition (Ratio %) DAT | 88.53 |
| NC(=O)c1ccc2[nH]c(-c3nnc(CN4CCC(Cc5ccccc5)CC4)[nH]3)cc2c1 [Example 57] | dopamine transporter (DAT) (Homo sapiens) | Triple reuptake inhibition (Ratio %) DAT | 20.95 |
| COc1ccc2c(-c3nnc(CN4CCC(Cc5ccccc5)CC4)[nH]3)c[nH]c2c1 [Example 56] | dopamine transporter (DAT) (Homo sapiens) | Triple reuptake inhibition (Ratio %) DAT | 45.52 |
| Cc1ccc2[nH]c(-c3nnc(CN4CCC(Cc5ccc(Cl)c(Cl)c5)CC4)[nH]3)cc2c1 [Example 30] | dopamine transporter (DAT) (Homo sapiens) | Triple reuptake inhibition (Ratio %) DAT | 72.11 |
| COC(=O)c1ccc2[nH]c(-c3nnc(CN4CCC(Cc5ccccc5)CC4)[nH]3)cc2c1 [Example 20] | dopamine transporter (DAT) (Homo sapiens) | Triple reuptake inhibition (Ratio %) DAT | 5.14 |
